- PROCEDURE SUMMARY: Stability of the compound assessed as compound remaining at 50 degC after 2 days
- Type: physicochemical
- TEST CONDITIONS: read-out: Stability
QUANTITY: remaining at 48 h

Consider the molecule shown here: CC(=O)Oc1ccccc1C(=O)OC(C)O[N+](=O)[O-] (stereo unspecified) What is its recorded remaining at 48 h?
98.8%

----------
Listing of entries alongside the reported remaining at 2 h.
- PROCEDURE SUMMARY: Metabolic stability in simulated gastric fluid assessed as compound remaining at pH 1.2 after 120 mins by HPLC analysis
- Assay type: ADME
- TEST CONDITIONS: read-out: Stability
Field format: number, assumed %, no unit text.

In [3]: df
Out[3]:
                                   compound          quantity  recorded_result
0  CCCCC(OC(=O)[C@@H](C)c1ccc2cc(OC)ccc2c1)O[N+](=O)[O-] (stereo partly drawn)  remaining at 2 h               80
1  CCC(OC(=O)[C@@H](C)c1ccc2cc(OC)ccc2c1)O[N+](=O)[O-] (stereo partly drawn)  remaining at 2 h               39

Let's switch to this compound now.
Consider the compound shown here: CCCC(OC(=O)[C@@H](C)c1ccc2cc(OC)ccc2c1)O[N+](=O)[O-] (stereo partly drawn) What is its recorded remaining at 2 h?
58

----------
- PROCEDURE SUMMARY: Metabolic stability in simulated gastric fluid assessed as compound remaining at pH 1.2 after 30 mins by HPLC analysis
- Assay type: ADME
- TEST CONDITIONS: read-out: Stability
QUANTITY: remaining at 0.5 h (%)
Field format: number, assumed %, no unit text.

Below, 3 molecules whose answers are already recorded.
>>> print(df.to_string())
                                   molecule            quantity  units_text  recorded_result
0  CCC(OC(=O)[C@@H](C)c1ccc2cc(OC)ccc2c1)O[N+](=O)[O-] (some centres undefined)  remaining at 0.5 h           %               62
1  COc1ccc2cc([C@H](C)C(=O)OC(C)O[N+](=O)[O-])ccc2c1 (some centres undefined)  remaining at 0.5 h           %               33
2  CCCC(OC(=O)[C@@H](C)c1ccc2cc(OC)ccc2c1)O[N+](=O)[O-] (some centres undefined)  remaining at 0.5 h           %               83

Consider the molecule shown here: CCCCC(OC(=O)[C@@H](C)c1ccc2cc(OC)ccc2c1)O[N+](=O)[O-] (some centres undefined) What is its recorded remaining at 0.5 h?
87

----------
- PROCEDURE SUMMARY: Stability of the compound assessed as compound remaining at 50 degC after 5 days
- Type: physicochemical
- TEST CONDITIONS: read-out: Stability
QUANTITY: remaining at 120 h (%)
Field format: number, assumed %, no unit text.

Consider the compound shown here: CC(=O)Oc1ccccc1C(=O)OC(C)O[N+](=O)[O-] (stereo unspecified) What is its recorded remaining at 120 h?
98.2

----------
- PROCEDURE SUMMARY: Stability of the compound assessed as compound remaining at RT measured immediately
- Assay type: physicochemical
- TEST CONDITIONS: read-out: Stability
QUANTITY: remaining at 0 days
I'd appreciate it if you wrote the number followed by its unit.

Consider the compound shown here: CC(=O)Oc1ccccc1C(=O)OC(C)O[N+](=O)[O-] (configuration not stated) What is its recorded remaining at 0 days?
99.1%

Consider the compound shown here: COc1ccc2cc([C@H](C)C(=O)OC(C)O[N+](=O)[O-])ccc2c1 (some centres not stated) What is its recorded remaining at 0 days?
99.1%

----------
- PROCEDURE SUMMARY: Half life in simulated intestinal fluid at pH 6.8 by HPLC analysis
- Type: ADME
QUANTITY: half-life

Consider the compound shown here: CC(=O)Oc1ccccc1C(=O)OC(C)O[N+](=O)[O-] (stereo unspecified) What is its recorded half-life?
< 15 min

----------
- PROCEDURE SUMMARY: Half life in simulated gastric fluid at pH 1.2 by HPLC analysis
- Format: ADME
Listing of entries alongside the reported half-life.

Consider the compound shown here: CCCC(OC(=O)[C@@H](C)c1ccc2cc(OC)ccc2c1)O[N+](=O)[O-] (stereo not given in full) What is its recorded half-life?
< 3 h

Consider the compound shown here: CC(=O)Oc1ccccc1C(=O)OC(C)O[N+](=O)[O-] (stereo not given) What is its recorded half-life?
< 0.167 h

Consider the compound shown here: CCCCC(OC(=O)[C@@H](C)c1ccc2cc(OC)ccc2c1)O[N+](=O)[O-] (stereo not given in full) What is its recorded half-life?
> 3 h

Consider the compound shown here: COc1ccc2cc([C@H](C)C(=O)OC(C)O[N+](=O)[O-])ccc2c1 (stereo not given in full) What is its recorded half-life?
< 0.5 h

Consider the compound shown here: CCC(OC(=O)[C@@H](C)c1ccc2cc(OC)ccc2c1)O[N+](=O)[O-] (stereo not given in full) What is its recorded half-life?
1 h

----------
- PROCEDURE SUMMARY: Metabolic stability in simulated gastric fluid assessed as compound remaining at pH 1.2 after 15 mins by HPLC analysis
- Format: ADME
- TEST CONDITIONS: read-out: Stability
Listing of entries alongside the reported remaining at 0.25 h.
Field format: number, assumed %, no unit text.

Consider the molecule shown here: CCC(OC(=O)[C@@H](C)c1ccc2cc(OC)ccc2c1)O[N+](=O)[O-] (some centres undefined) What is its recorded remaining at 0.25 h?
74

----------
- PROCEDURE SUMMARY: Metabolic stability in simulated gastric fluid assessed as compound remaining at pH 1.2 after 40 mins by HPLC analysis
- Type: ADME
- TEST CONDITIONS: read-out: Stability
QUANTITY: remaining at 40 min (%)
Field format: number, assumed %, no unit text.

Consider the compound shown here: CC(=O)Oc1ccccc1C(=O)OC(C)O[N+](=O)[O-] (stereo unspecified) What is its recorded remaining at 40 min?
12

----------
- PROCEDURE SUMMARY: in vivo
- TEST CONDITIONS: Sprague-Dawley, rat, po, 10 mg/kg
- Description: Tmax in Sprague-Dawley rat 10 mg/kg, po
QUANTITY: Tmax (min)
Field format: number, assumed min, no unit text.

Consider the compound shown here: "COc1ccc2cc([C@H](C)C(=O)O)ccc2c1" What is its recorded Tmax?
15

----------
- PROCEDURE SUMMARY: Half life in human plasma by HPLC analysis
- Assay type: ADME, cell-free
QUANTITY: half-life

Consider the compound shown here: CC(=O)Oc1ccccc1C(=O)OC(C)O[N+](=O)[O-] (stereo unspecified) What is its recorded half-life?
< 5 min

----------
- PROCEDURE SUMMARY: Stability of the compound assessed as compound remaining at RT after 25 days
- Format: physicochemical
- TEST CONDITIONS: read-out: Drug metabolism
QUANTITY: remaining at 600 h (%)
Field format: number, assumed %, no unit text.

Consider the molecule shown here: COc1ccc2cc([C@H](C)C(=O)OC(C)O[N+](=O)[O-])ccc2c1 (stereo partly specified) What is its recorded remaining at 600 h?
98.9

----------
- PROCEDURE SUMMARY: Metabolic stability in simulated gastric fluid assessed as compound remaining at pH 1.2 after 60 mins by HPLC analysis
- Format: ADME
- TEST CONDITIONS: read-out: Stability
QUANTITY: remaining at 1 h

Below, 4 molecules whose answers are already recorded.
In [3]: df
Out[3]:
                                   molecule  recorded_result
0  CC(=O)Oc1ccccc1C(=O)OC(C)O[N+](=O)[O-] (stereo not given)               0%
1  COc1ccc2cc([C@H](C)C(=O)OC(C)O[N+](=O)[O-])ccc2c1 (stereo not given in full)               0%
2  CCC(OC(=O)[C@@H](C)c1ccc2cc(OC)ccc2c1)O[N+](=O)[O-] (stereo not given in full)              51%
3  CCCC(OC(=O)[C@@H](C)c1ccc2cc(OC)ccc2c1)O[N+](=O)[O-] (stereo not given in full)              75%

Consider the molecule shown here: CCCCC(OC(=O)[C@@H](C)c1ccc2cc(OC)ccc2c1)O[N+](=O)[O-] (stereo not given in full) What is its recorded remaining at 1 h?
87%

----------
- PROCEDURE SUMMARY: in vivo
- TEST CONDITIONS: Sprague-Dawley, rat, plasma, po, 10 mg/kg
- Description: Cmax in Sprague-Dawley rat at 10 mg/kg, po after 2 hrs
QUANTITY: Cmax at 2 h

Consider the compound shown here: "COc1ccc2cc([C@H](C)C(=O)O)ccc2c1" What is its recorded Cmax at 2 h?
> 30000 ng/mL

----------
- PROCEDURE SUMMARY: in vivo
- TEST CONDITIONS: Sprague-Dawley, rat, plasma, po, 10 mg/kg
- Description: Cmax in Sprague-Dawley rat at 10 mg/kg, po after 4 hrs
QUANTITY: Cmax at 4 h

Consider the compound shown here: "COc1ccc2cc([C@H](C)C(=O)O)ccc2c1" What is its recorded Cmax at 4 h?
> 20000 ng/mL

Where do these numbers come from? They come from ChEMBL document CHEMBL3352635.
